- Assay Remarks: chemical genetic growth profiling, strain panel (AID 1159580);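 note: tested at 20 µM; growth read once vehicle control cultures reached saturation at 30 °C; 1 = growth at the plate median or of vehicle wells; lower values mean less growth of the strain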
- Experimental Conditions: S. cerevisiae deletion strains, growth OD, locus YDR069C, strain doa4, active compounds read low
Hit rate of the full screen: of about 5,500 compounds, about 2,000 (36%) were called active. Roughly 18% stayed inconclusive and do not appear here. The list shows a part of the results.
The following molecules are listed with their measured normalized growth values.
Reply with just the number.

{"Molecule": "COC(=O)c1c(OC)cc2c(c1C)Oc1c(Cl)c(O)c(Cl)c(C)c1C(=O)O2", "Recorded Metric": "normalized growth", "Endpoint Result": 0.968}

Read the entry CC(C)c1ccc2c(c1)CCC1[C@](C)(CN)CCC[C@]21C (stereo partly specified) and write its reported normalized growth.
0.839

Read the entry CC(=O)OCC(=O)[C@@]1(O)[C@H](C)CC2C3CCC4=CC(=O)C=C[C@]4(C)[C@@]3(F)[C@@H](O)C[C@@]21C (stereo partly specified) and write its reported normalized growth.
0.948

Read the entry `COc1cc(C/C=C/c2ccccc2)c(OC)cc1O` and write its reported normalized growth.
0.943

Read the entry CC1(C)CC2C1CC[C@]1(C)CCC3C(C(=O)O)CC(=O)O[C@@]32C1 (stereo partly specified) and write its reported normalized growth.
1.06

Read the entry C/C=C\C1=C(C(=O)O)N2C(=O)C(NC(=O)C(N)c3ccc(O)cc3)C2SC1 (stereo unspecified) and write its reported normalized growth.
0.995

Read the entry `CS(=O)(=O)Nc1ccc([N+](=O)[O-])cc1Oc1ccccc1` and write its reported normalized growth.
1.02

Read the entry `CN(C)CCCN1c2ccccc2Sc2ccc(Cl)cc21` and write its reported normalized growth.
0.0779

Read the entry CC(=O)O[C@@H]1CC2C(C)(C)[C@H](O)C=C[C@]2(C)C2CC[C@]3(C)C(=CC(=O)O[C@H]3c3ccoc3)[C@@]21C (stereo partly specified) and write its reported normalized growth.
0.978

Read the entry `OC[C@H]1O[C@@H](O[C@@H]2[C@@H](CO)O[C@](O)(CO)[C@H]2O)[C@H](O)[C@@H](O)[C@H]1O` and write its reported normalized growth.
1.02

Read the entry `CN(C)[C@@H]1C(=O)C(C(N)=O)=C(O)[C@@]2(O)C(=O)C3=C(O)c4c(O)ccc(Cl)c4[C@@H](O)[C@H]3C[C@@H]12` and write its reported normalized growth.
0.969

Read the entry CC(C)=CCCC(C)[C@@H]1CC[C@]2(C)C3=C(CC[C@@]12C)C1(C)CC[C@H](O)C(C)(C)C1CC3 (stereo partly specified) and write its reported normalized growth.
1.03

Read the entry `CC(C)=CCc1c2c(c3occ(-c4ccc(O)c(O)c4)c(=O)c3c1O)C=CC(C)(C)O2` and write its reported normalized growth.
0.845

Read the entry `CCOC(=O)NNc1nncc2ccccc12` and write its reported normalized growth.
0.985

Read the entry CC(=O)O[C@@H]1CC2C(C)(C)C(=O)C=C[C@]2(C)C2CC[C@]3(C)C(=CC(=O)O[C@H]3c3ccoc3)[C@@]21C (stereo partly specified) and write its reported normalized growth.
1.02

Read the entry `CC(C)(C)NC[C@H](O)c1ccc(O)c(CO)c1` and write its reported normalized growth.
1.04

Read the entry `CS(=O)(=O)c1ccc([C@@H](O)[C@@H](CO)NC(=O)C(Cl)Cl)cc1` and write its reported normalized growth.
1

Read the entry CC(=O)O[C@H]1CC[C@@]2(C)C(=CC(=O)C3C4CCC(C(C)CCCC(C)C)[C@@]4(C)CCC32)C1 (stereo partly specified) and write its reported normalized growth.
0.992

Read the entry CC(=O)O[C@@H]1C=C[C@@]2(C)C(C[C@@H](OC(C)=O)[C@@]3(C)C4=CC(=O)O[C@@H](c5ccoc5)[C@]4(C)CCC23)C1(C)C (stereo partly specified) and write its reported normalized growth.
0.996

----------
- Assay Remarks: chemical genetic growth profiling, strain panel (AID 1159580)
- Experimental Conditions: S. cerevisiae deletion strains, growth OD, locus YNL322C, strain KRE1 (second series), active compounds read low
Hit rate of the full screen: of about 5,500 compounds, about 2,000 (36%) were called active. Another 18% or so got no clear call; they are omitted. The list shows a part of the results.
Recorded Metric: normalized growth
Reply with just the number.

{"Molecule": "CCN(CC)CCOC(=O)C1(C2CCCCC2)CCCCC1", "Recorded Metric": "normalized growth", "Endpoint Result": 0.979}
{"Molecule": "CC(CCc1ccccc1)NCC(O)c1ccc(O)c(C(N)=O)c1 (configuration not stated)", "Recorded Metric": "normalized growth", "Endpoint Result": 0.993}
{"Molecule": "CC(=O)O[C@H]1CC[C@@]2(C)C(=CC(=O)C3C4CCC(C(C)CCCC(C)C)[C@@]4(C)CCC32)C1 (some centres not stated)", "Recorded Metric": "normalized growth", "Endpoint Result": 0.983}

Read the entry `Cc1cc(=O)oc2cc(O)cc(O)c12` and write its reported normalized growth.
0.95

Read the entry `CNNC` and write its reported normalized growth.
1.02

Read the entry `Oc1c(Cl)cc(Cl)cc1Sc1cc(Cl)cc(Cl)c1O` and write its reported normalized growth.
0.0643

Read the entry `Cc1cc(=O)oc2cc(O)c(O)cc12` and write its reported normalized growth.
0.995

----------
The following compounds are listed with their measured normalized growth values.
- Assay Remarks: chemical genetic growth profiling, strain panel (AID 1159580);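 note: tested at 20 µM; growth read once vehicle control cultures reached saturation at 30 °C; 1 = growth at the plate median or of vehicle wells; lower values mean less growth of the strain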
- Experimental Conditions: S. cerevisiae deletion strains, growth OD, locus YDL134C, strain PPH21, active compounds read low
Screen size: about 5,500 compounds; about 2,000 (36%) were called active. Not shown: some 18% with an inconclusive outcome. The list shows a part of the results.
Reply with just the number.

Record excerpt, results attached:
{"Compound": "CC(=O)O[C@@H]1CC[C@@]2(C)C(C[C@@H](OC(C)=O)[C@@]3(C)C4=CC(=O)O[C@@H](c5ccoc5)[C@]4(C)CCC23)C1(C)C (stereo partly specified)", "normalized growth": 1.01}
{"Compound": "N/C(=N/OC(=O)c1ccccc1)c1ccc(-c2csnn2)cc1", "normalized growth": 1.01}
{"Compound": "Nc1ccc(S(=O)(=O)NC(=O)c2ccccc2)cc1", "normalized growth": 1.02}
{"Compound": "Cc1cccc(C)c1N=C1SCCS1", "normalized growth": 1.02}
{"Compound": "C=C(C)C1CCC(C)(O)C2CC3OC3(C)C2C1 (stereo unspecified)", "normalized growth": 1}

Let us examine a further case.
Read the entry `C(=C(c1ccccc1)c1ccccc1)N1CCC1` and write its reported normalized growth.
1.01

----------
- Assay Remarks: chemical genetic growth profiling, strain panel (AID 1159580);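 note: tested at 20 µM; growth read once vehicle control cultures reached saturation at 30 °C; 1 = growth at the plate median or of vehicle wells; lower values mean less growth of the strain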
- Experimental Conditions: S. cerevisiae deletion strains, growth OD, locus YMR219W, strain ESC1
The whole screen tested about 5,500 compounds, of which about 2,000 (36%) were called active. Another 18% or so got no clear call; they are omitted. Rule as the data show it: active = normalized growth mostly below about 0.91 (no sharp cut-off); inconclusive = no clear call, values can overlap the other calls; inactive = mostly above about 0.92. The list shows a part of the results.
Your reply should match one of these outcome classes. yes (1) = active, no (0) = inactive

Example cases with answers are listed next.
{"Compound": "O=c1[nH]cnc2ccsc12", "Label Value": "no (0)"}
{"Compound": "N#CC(c1ccccc1)N1CCCCC1 (configuration not stated)", "Label Value": "no (0)"}
{"Compound": "N/C(Cc1cccc2ccccc12)=N/O", "Label Value": "no (0)"}
{"Compound": "c1ccc(-c2nc(-c3cccs3)cs2)cc1", "Label Value": "yes (1)"}
{"Compound": "NC(N)=NC(N)=Nc1ccc2c(c1)OCCO2", "Label Value": "no (0)"}

Continue with the compound presented below.
Just curious, what result did `COC(OC)c1cc(=O)[nH]c(=S)[nH]1` get here?
no (0)

----------
- Assay Remarks: chemical genetic growth profiling, strain panel (AID 1159580);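 note: tested at 20 µM; growth read once vehicle control cultures reached saturation at 30 °C; 1 = growth at the plate median or of vehicle wells; lower values mean less growth of the strain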
- Experimental Conditions: S. cerevisiae deletion strains, growth OD, locus YPL106C, strain sse1, active compounds read low
The campaign covered roughly 5,500 compounds. About 2,000 (36%) were called active. Not shown: some 18% with an inconclusive outcome. Some of the results follow.
The label yes is reserved for normalized growth strictly under 1; no covers values equal to or above it.

Example cases with answers are listed next.
{"Compound": "CC(N=C(NC#N)Nc1ccncc1)C(C)(C)C (centres undefined)", "Label Value": "yes"}
{"Compound": "O=P1(N(CCCl)CCCl)NCCCO1 (centres undefined)", "Label Value": "no"}
{"Compound": "CN(C)[C@@H]1C(=O)C(C(=O)NCN2CCCC2)=C(O)[C@@]2(O)C(=O)C3=C(O)c4c(O)cccc4[C@@](C)(O)[C@H]3C[C@@H]12", "Label Value": "yes"}
{"Compound": "Cc1scc2c1N(C(=O)CN1CCN(C)CC1)c1ccccc1NC2=O", "Label Value": "yes"}
{"Compound": "O=C(O)c1cccnc1", "Label Value": "no"}
{"Compound": "O=C(O)c1ccccc1", "Label Value": "yes"}

Continue with the compound presented below.
Determine whether this compound shows normalized growth lower than 1 (ties excluded): `NC(=O)c1cccnc1`
yes

src = PubChem BioAssay AID1159580
